# measurement notes: soluble on expression in E. coli; label from the status in PepcDB or PDB records
quantity kind: soluble on expression in E. coli

Here are 5 sequences together with their reported answers.
MADEVTIGFRFYPTEEELVSFYLRNQLEGRSDDSMHRVIPVLDVFEVEPSHLPNVAGVRCRGDAEQWFFFVPRQEREARGGRPSRTTGSGYWKATGSPGPVFSKDNKMIGAKKTMVFYTGKAPTGRKTKWKMNEYHAVDETVNASTIPKLRREFSLCRVYITTGSSRAFDRRPEGVLQTERMLTSDVAVAETSFRVESSLETSISGGEHIDVSMNTEFVDGLSEPMWDWEQLTWP	soluble
MGEGTRGEAFKKIREGYKVHIFDESYVSYINKGKGWMKVGGGIKVNPKRKRFAVVGGITISKEGITFSYSTYKKPSLNSKDIILYLRKVIKDEKTVIVMDNARIHGNEVREFLEENGVEFVYLPPYSPDKSPAEGPWAVLKKRLYSKIYTDFETLMWDATRFLRSISKRVNDLTYSVKRCGEPLDVNTE	soluble
MLSAFTPRPLKRLFTANQCWTSFLDAGGLRDIEVEAVTKMLACGTRILGVKEYICDKPECPHVRYVTNSCGSRACPSCGKKATDLWIATQLNRLPDCDWVHLVFTLPDTQWPVFESNRWLLNDVCRLAVENLLYAARKRGQEPGIFCAIHTYGRRLNWHPHVHVSVTCGGLNKHGQWKKLSFLKDAMRSRWMWNMRQRLLKAWSEGLAMPESLSHITTESQRRSLVLKAGGKYWHVYMSKKTAGGRNTARYLGRYLKKPPIAASRLAHYNGGGA	not soluble
MGSDKIHHHHHHMHLTKTWLAQLPLTDIQQVQPVSGGDINAAFQIITRHHQYFLKVQPHNDVTFFDHEVAGLRLLGAVTKTPRVIASGTIATDGYLLLDWLATGTGSQSALGAAVAKVHHQHHAQFGLDHDFTAGKLPKINHWQTDWATFYTQQRLDVLVNLAKEHHLWSETREMHYHRLRQQLLQDSHMHTVKPSLLHGDLWSGNYLFDTTGTPVLIDPDVFYGDREMDLAMTTIFGGFDTDFYQAYQAAYPVAPGMQDRLPSYQLYYLLAHLNLFGETYGPAVDRILMQY	not soluble
MGSDKIHHHHHHIYWEFTTKNMLVLEFIEGIRIDDLESLNASKHNIKNITEIGTEVFFLQVFRDGFFHGDMHPGNILIDKEGALIPIDFGIMGRLSNKDRQFLALLLTYLLNKNYRKVVEIHDEANMLGKDVSHDHLSQAIRAISTPILNKPIGEVSLAKLLGQILSLSKKFNIEVQPQFTLLQKTMLMAEGTTRQINPNINMWELSRPLIDKWINDTHDPFKVLEEWFHKNKIALLKIPEIINKIDKILS	not soluble

Here is the next item to consider.
**Query** Sample MSTPDGDEKEQCFHRAIAKTSIYLDREPGNPELTVWLAINKASLAGAQGGFGALSLAKEAKSLLEGVIATSPQTLDGSAYTSLGSLYYKVPGWPIGFGDDDKAEEMLKKALEINPKGIDPNYFYGDFLAEEGRDKEAKVYLTRAMQASPRPLEHHHHHH — what was its soluble on expression in E. coli?
**Result** not soluble

====

# measurement notes: soluble on expression in E. coli; label from the status in PepcDB or PDB records
quantity kind: soluble on expression in E. coli

MAHHHHHHMRIHHAFFRQSCRIMRGIDSARSTPTFVNGTDGMGTIHMLFSKRTHSNTTHSNADSAYMPGSNLHVEHPIVQLPARSLWCKQYPLDISLVRRGEFNDMIGRVRAARHYYQYPSLCAPKIGWNVQMFTLFDGTVFINPINLDALEVEEIAKQKSITFVEAEALWMEKKRREGKTCFAWEPCASCCFLLHFIERPSTVRVRAIAEDGNPFEVTLDKMRARMALHELDHLNGILFTRRIPDTSHVVPLEGFSTMSEWPDDYPSLEARSTFLYTTFTPPYTFITDSVEDAQLLDRKFEDGIYPGCEHDRRMRIESAAFEELQRAQWRMEKTREENSEEYDGVEGEVDEEDQEHCEETAAGGVAVKDNAPQ	not soluble
MGSDKIHHHHHHMNSTMQVLVIGGTGTLGRQIAKNAIDAGHKVRCMVRKPKAASFLQEWGCELTRGNLLNKEDIEYALDGIDAVIDAATSRPDDPRSVYETDWDGKLNLFNACEEKNVKRVVFLSLLAAEKYREIPLMDIKYCTEELLVSSSLDYTILQGVAFMQGAIGQFAIPILNNEPVWISGNPTDIAYMNTQDIARFAVAALDRPQTIKGRFPIVGPKAWSAKGLVDLCEKFSEKRARVLKVSPTIISIAQSVVSFFEPTLNVAERLSFSELSGSGGKLDAPMEDTYTAFGLNPADTTTMEGYIKEYYGVILKRLKDIGVDLDIEEKKKFPI	not soluble
